System under test: T1, human neuropeptide Y2 receptor (human, UniProt P49146 1-381)
T1 sequence (looked up): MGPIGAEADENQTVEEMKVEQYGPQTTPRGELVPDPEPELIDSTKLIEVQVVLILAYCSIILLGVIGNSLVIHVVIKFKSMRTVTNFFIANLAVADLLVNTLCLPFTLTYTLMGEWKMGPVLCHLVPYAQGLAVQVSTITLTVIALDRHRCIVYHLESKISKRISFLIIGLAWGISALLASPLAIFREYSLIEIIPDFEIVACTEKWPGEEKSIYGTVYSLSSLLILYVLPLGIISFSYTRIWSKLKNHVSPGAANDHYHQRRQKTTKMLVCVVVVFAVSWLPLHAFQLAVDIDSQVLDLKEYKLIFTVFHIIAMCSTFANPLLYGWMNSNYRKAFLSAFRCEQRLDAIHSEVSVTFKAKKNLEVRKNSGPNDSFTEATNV
Experimental details: cell-based or functional assay
Starred links: 1 amine or outer side, 2 acyl side, 3 side chain; linkers in the order of their positions; H or OH if unused. Non-standard residues stand in square brackets, D forms with d. Groups on a side chain read outwards from the residue. No end group written: not given here. *: point of attachment. C18 diacid = O=C(O)CCCCCCCCCCCCCCCCC(=O)*; γGlu = O=C(O)[C@H](CCC(=O)[*:2])N[*:1]; AEEA = NCCOCCOCC(=O)O; Aib = CC(C)(N)C(=O)O
Property measured: EC50 CreLuc hNPY2R 0.5% hP (nM)
Only the number, expressed in nM, is required.

# example entries with known answers
1) Y[Aib]EGTFTSDYSI[Aib]LEKQAQ[Aib]AFVQWLIKGGPSSGASLRHYYNWLTRQRY-NH2 (not fully specified (residue 28)) [Compound 147] :: 23.3
2) Y[Aib]EGTFTSDYSI[Aib]LEKQAQ[Aib]EFVQWLIK([γGlu-γGlu-γGlu-γGlu-γGlu-γGlu-C18 diacid])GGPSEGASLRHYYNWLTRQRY-NH2 [Compound 151] :: 18.9
3) YXEGTFTSDYSIXLEKQAQXAFVEWLIKGGPSSGLSLRHYYNWLTRQRY (Aib at 2, 13, 20; K28 side chain: C20DA-gGlu-gGlu-gGlu-gGlu-gGlu-gGlu-eLys; C-terminal NH2) [Compound 107] :: 16.7

EC50 CreLuc hNPY2R 0.5% hP in this record for YXEGTFTSDYSIXLEKQAQXAFVEWLIKGGPSSGASLRHYINWLTRQRY (Aib at 2, 13, 20; K28 side chain: C20DA-gGlu-gGlu-gGlu-gGlu-gGlu-gGlu-eLys; C-terminal NH2) [Compound 106] : 20.5

EC50 CreLuc hNPY2R 0.5% hP for Y[Aib]EGTFTSDYSI[Aib]LEKQAQ[Aib]EFVQWLIK([AEEA-AEEA-Glu-Glu-Glu-C18 diacid])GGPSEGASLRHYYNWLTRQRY-NH2 [Compound 157] is 23.6
